Target or system: UniProt Q9NRM0
Test description: Evaluation of human GLUT9 inhibitory activity ([14C] uric acid uptake in human GLUT9 expressing HEK293T cells transduced with Uricase/Hyper)
Assay type: cell-based
Condition summary: final 300 μM uric acid, 6 min, human GLUT9 stably expressing HEK293T cells, read-out: humans GLUT9 inhibitory activity (IC50 value (μM))
Protocol: A method for measuring GLUT9 inhibitory activity using human GLUT9 expressing cells transduced with Uricase/Hyper is shown hereinafter. GLUT9 inhibitory activity ([…]) of the test compound was calculated based on the intracellular uptake amount of labeled uric acid ([^14C] uric acid) transported by GLUT9. 1. Preparation of Human GLUT9 Expression Plasmid Human GLUT9S coding region (NM_001001290.1) was amplified by PCR method using PrimeSTAR MAX DNA Polymerase (Takara Bio). […]
Value type: IC50
Answer format: value, then unit.

CCCCc1cnc(-c2ccc3c(c2)OCCO3)c(-c2ccc(C(=O)O)cc2)n1    0.133 µM
COCCCCc1cnc(-c2ccc(OC)cc2)c(-c2ccc(C(=O)O)c(Cl)c2)c1    0.229 µM
COCCCCc1cnc(-c2cc(F)c(OC)c(F)c2)c(-c2ccc(C(=O)O)cc2)c1    0.0569 µM

**Q:** I would be grateful if you could share the reported IC50 for CCOCCc1cnc(-c2cc(F)c(OC)c(F)c2)c(-c2ccc(C(=O)O)c(C)c2)c1 .
**A:** 0.0639 µM

* * *

Target or system: human GLUT9 (Homo sapiens (Human))
Test description: Evaluation of human GLUT9 inhibitory activity ([14C] uric acid uptake in human GLUT9 expressing HEK293T cells transduced with Uricase/Hyper)
Type: cell-based
Condition summary: final 300 μM uric acid, 6 min, human GLUT9 stably expressing HEK293T cells, read-out: humans GLUT9 inhibitory activity (IC50 value (μM))
Would you kindly list IC50 for each of these compounds?
For clarity, give the value followed by its unit.

Check out these entries, answers already filled in.
CCCCc1cnc(-c2ccc(OC)cc2F)c(-c2ccc(C(=O)O)cc2)n1    0.134 µM
CCCCc1cnc(-c2ccc3c(c2)CCO3)c(-c2ccc(C(=O)O)cc2)n1    0.0888 µM
COCCCc1cnc(-c2cc(F)c(OC)c(F)c2)c(-c2ccc(CCC(=O)O)cc2)n1    0.0795 µM
COc1ccc(-c2ncc(CCC(F)(F)F)cc2-c2ccc(C(=O)O)cc2)cc1    0.127 µM
COCCCCc1cnc(-c2ccc(OC)cc2)c(-c2ccc(C(=O)O)cc2)c1    0.0589 µM
CCCCc1cnc(-c2ccc(OC)cc2)c(-c2ccc(C(=O)O)cc2)n1    0.0807 µM
COCCCCc1cnc(-c2ccc(OC)cc2)c(-c2ccc(CCC(=O)O)cc2)c1    0.0688 µM
COCCCc1cnc(-c2cc(F)c(OC)c(F)c2)c(-c2ccc(CCC(=O)O)cc2)c1    0.0576 µM

Okay, here is my list. What is IC50 for each of these?
1. COCCCCc1cnc(-c2cc(F)c(OC)c(F)c2)c(-c2ccc(CCC(=O)O)cc2)n1
2. COCCCCc1cnc(-c2cc(F)c(OC)c(F)c2)c(-c2ccc(C(=O)O)cc2)n1
3. COc1ccc(-c2ncc(CCCCO)cc2-c2ccc(C(=O)O)cc2)cc1
4. CCCCc1cnc(-c2ccc(OC(F)(F)F)cc2)c(-c2ccc(C(=O)O)cc2)n1
5. CCOCCc1cnc(-c2cc(F)c(OC)c(F)c2)c(-c2ccc(CCC(=O)O)cc2)n1
6. CCCCc1cnc(-c2ccc(OC)cc2)c(-c2ccc(CC(=O)O)cc2)n1
7. CCCc1cnc(-c2cc(F)c(OC)c(F)c2)c(-c2ccc(C(=O)O)cc2)n1

**A:**
1: 0.0807 µM; 2: 0.119 µM; 3: 0.962 µM; 4: 0.0844 µM; 5: 0.525 µM; 6: 0.865 µM; 7: 0.077 µM

Go through the items and report each one's IC50.
1. COc1c(F)cc(-c2ncc(CC(C)C)cc2-c2ccc(C(=O)O)cc2)cc1F
2. CCCCc1cnc(-c2ccc3c(c2)CCCO3)c(-c2ccc(C(=O)O)cc2)n1

**A:**
0.0514 µM
0.201 µM

* * *

Provide the reported IC50 of each item.
Target or system: human GLUT9 (Homo sapiens (Human), UniProt Q9NRM0)
Sequence (Q9NRM0 other isoform, or with tags, fused parts or gaps): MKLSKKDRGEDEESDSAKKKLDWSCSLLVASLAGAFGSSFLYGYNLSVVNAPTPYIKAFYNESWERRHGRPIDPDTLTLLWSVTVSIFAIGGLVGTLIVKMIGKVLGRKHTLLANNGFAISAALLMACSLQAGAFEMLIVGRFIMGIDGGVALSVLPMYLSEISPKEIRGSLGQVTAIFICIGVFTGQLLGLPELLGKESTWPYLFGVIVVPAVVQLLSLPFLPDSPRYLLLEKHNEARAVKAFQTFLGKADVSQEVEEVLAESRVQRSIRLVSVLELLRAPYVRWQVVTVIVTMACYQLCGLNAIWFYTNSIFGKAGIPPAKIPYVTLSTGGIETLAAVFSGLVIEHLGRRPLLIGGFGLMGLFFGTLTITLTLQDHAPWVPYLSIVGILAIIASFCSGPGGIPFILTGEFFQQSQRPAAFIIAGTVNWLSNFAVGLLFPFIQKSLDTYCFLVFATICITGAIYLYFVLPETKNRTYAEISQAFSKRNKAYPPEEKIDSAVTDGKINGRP
Test description: Evaluation of human GLUT9 inhibitory activity ([14C] uric acid uptake in human GLUT9 expressing HEK293T cells transduced with Uricase/Hyper)
Assay type: cell-based
Condition summary: final 300 μM uric acid, 6 min, human GLUT9 stably expressing HEK293T cells, read-out: humans GLUT9 inhibitory activity (IC50 value (μM))

CCOCCc1cnc(-c2cc(F)c(OC)c(F)c2)c(-c2ccc(C(=O)O)c(C)c2)n1    0.313 µM

Give me IC50 for each of these compounds, listed below.
1. COCCCc1cnc(-c2cc(F)c(OC)c(F)c2)c(-c2ccc(C(=O)O)c(Cl)c2)n1
2. COc1ccc(-c2ncc(CCCO)cc2-c2ccc(C(=O)O)cc2)cc1
3. COc1ccc(-c2ncc(CC3CC3)cc2-c2ccc(C(=O)O)cc2)cc1

**A:**
1: 0.501 µM; 2: 5.59 µM; 3: 0.0887 µM

* * *

Field: log10 IC50. Provide a value for each of the compounds that follow.
Target or system: UniProt:Q9NRM0
Test description: Evaluation of human GLUT9 inhibitory activity ([14C] uric acid uptake in human GLUT9 expressing HEK293T cells transduced with Uricase/Hyper)
Type: cell-based
Condition summary: final 300 μM uric acid, 6 min, human GLUT9 stably expressing HEK293T cells, read-out: humans GLUT9 inhibitory activity (IC50 value (μM))
Experimental: A method for measuring GLUT9 inhibitory activity using human GLUT9 expressing cells transduced with Uricase/Hyper is shown hereinafter. GLUT9 inhibitory activity ([…]) of the test compound was calculated based on the intracellular uptake amount of labeled uric acid ([^14C] uric acid) transported by GLUT9. 1. Preparation of Human GLUT9 Expression Plasmid Human GLUT9S coding region (NM_001001290.1) was amplified by PCR method using PrimeSTAR MAX DNA Polymerase (Takara Bio). […]
Would you kindly interpret these values as log10 of IC50 expressed in µM?

Record excerpt, results attached:
COc1ccc(-c2ncc(CCCC3(O)CCC3)cc2-c2ccc(C(=O)O)cc2)cc1    0.22
COCCCc1cnc(-c2ccc(OC)cc2)c(-c2ccc(C(=O)O)c(C)c2)c1    -1.16
CCCCc1cnc(-c2ccc(OC)cc2)c(-c2ccc(C(=O)O)c(C)c2)c1    -1.22
CCCCc1cnc(-c2ccc(OC)cc2)c(-c2ccc(C(=O)O)c(O)c2)n1    -0.61
CCCCc1cnc(-c2ccc(OC)c(C(F)(F)F)c2)c(-c2ccc(C(=O)O)cc2)n1    0.49

Give log10 IC50 for all compounds that follow.
1. CCCCc1cnc(-c2ccc(C3CC3)cc2)c(-c2ccc(C(=O)O)cc2)n1
2. CCCCc1cnc(-c2ccc(OC)cc2)c(-c2ccc(C(=O)O)c(F)c2)n1

**A:**
1: -0.91; 2: -1.04

* * *

Target or system: human GLUT9 (Homo sapiens (Human))
Test description: Evaluation of human GLUT9 inhibitory activity ([14C] uric acid uptake in human GLUT9 expressing HEK293T cells transduced with Uricase/Hyper)
Type: cell-based
Condition summary: final 300 μM uric acid, 6 min, human GLUT9 stably expressing HEK293T cells, read-out: humans GLUT9 inhibitory activity (IC50 value (μM))
Exercise: for every item that follows, state its recorded IC50.
Give bare numbers, in µM.

Answered examples (4):
COc1ccc(-c2ncc3c(c2-c2ccc(C(=O)O)cc2)CCCC3)cc1    5.06
CCCCc1cnc(-c2ccc(OC)cc2)c(-c2ccc(CCC(=O)O)c(F)c2)n1    0.184
CCc1cnc(-c2ccc(OC)cc2)c(-c2ccc(C(=O)O)cc2)c1    0.18
CCOCCc1cnc(-c2ccc(OC)cc2)c(-c2ccc(CCC(=O)O)cc2)c1    0.167

Respectfully, I request IC50 for each entry included below.
1. CCCCc1cnc(-c2cc(F)c(OC)c(F)c2)c(-c2ccc(CCC(=O)O)cc2)n1
2. CCOCCc1cnc(-c2ccc(OC)cc2)c(-c2ccc(C(=O)O)cc2)c1
3. CCCCc1cnc(-c2ccc(OC)cc2)c(-c2ccc(C(C)(C)C(=O)O)cc2)n1
4. CCCc1cnc(-c2ccc(C(F)(F)F)cc2)c(-c2ccc(C(=O)O)cc2)n1
5. COCCCCc1cnc(-c2cc(F)c(OC)c(F)c2)c(-c2ccc(C(=O)O)c(C)c2)n1
6. CCCCc1cnc(-c2ccc(COC)cc2)c(-c2ccc(C(=O)O)cc2)n1
7. COc1c(F)cc(-c2ncc(CC(C)C)nc2-c2ccc(C(=O)O)c(Cl)c2)cc1F
8. CCCCc1cnc(-c2ccc(OC)cc2)c(-c2ccc(C(=O)O)cc2)c1C

**A:**
[0.102, 0.104, 7.12, 0.189, 0.0613, 1.82, 0.106, 1.45]

Please look at the items below and tell me IC50 for each one, in order.
1. COc1ccc(-c2ncc(CCC3CC3)cc2-c2ccc(C(=O)O)cc2)cc1
2. CCOCCc1cnc(-c2ccc(OC)cc2)c(-c2ccc(C(=O)O)c(Cl)c2)c1
3. COc1ccc(-c2ncc(Cc3ccccc3)cc2-c2ccc(C(=O)O)cc2)cc1
4. COc1ccc(-c2ncc(CCc3ccccc3)cc2-c2ccc(C(=O)O)cc2)cc1
5. CCCCc1cnc(-c2ccc(OC)cc2)c(-c2ccc(C(=O)O)c(CC)c2)n1

**A:**
1: 0.119; 2: 0.499; 3: 0.164; 4: 0.453; 5: 0.0826
